GI50 reference
Test system: NCI/ADR-RES
Assay: NCI tumour cell line growth inhibition, 48 h
The source made the active and inactive calls. Rule as the data show it: active = GI50 up to about 1.1 µM and inactive = higher.

{"Compound": "CCNC12CCC(C1)C(C)(C)C2=O (stereo not drawn)", "GI50": "> 100 µM (inactive)"}

Supply GI50 value. Item: CCO/C=N\C1=C(C#N)SC2=N/C(=C\c3ccco3)C(=O)N21
> 100 µM (inactive)

Answer with the recorded GI50 of Cn1c(-c2cccs2)cc(-c2ccsc2)c1-c1ccsc1 only.
> 100 µM (inactive)

###

System: SW-620
Assay: NCI tumour cell line growth inhibition, 48 h
The source made the active and inactive calls. Rule as the data show it: active = GI50 up to about 1.1 µM and inactive = higher.
Measurement label: GI50

Look over these answered cases.
{"Compound": "COC(=O)CC1(CNC(=O)OCc2ccccc2)OCCO1", "System name": "SW-620", "GI50": "> 100 µM (inactive)"}
{"Compound": "COc1ccc(C2CC(c3c(O)ccc4ccccc34)=NN2C(C)=O)cc1OC (stereo unspecified)", "System name": "SW-620", "GI50": "32.9 µM (inactive)"}
{"Compound": "CC1CN=C(N(C(=O)Nc2ccccc2)c2ccc(Cl)c(Cl)c2)S1 (stereo unspecified)", "System name": "SW-620", "GI50": "30.5 µM (inactive)"}
{"Compound": "O=C(O)CCCCCO", "System name": "SW-620", "GI50": "> 100 µM (inactive)"}
{"Compound": "Cc1sc(Nc2ccc(Nc3nc(-c4ccccc4)c(C)s3)cc2)nc1-c1ccccc1", "System name": "SW-620", "GI50": "40.2 µM (inactive)"}

Recall and state the measured GI50 for Nc1ncn([C@@H]2C=C(CO)C(O)C2O)c(=O)n1 (stereo partly specified) .
69.8 µM (inactive)

Identify measured GI50 corresponding to O=C(O)c1nc2ccc(C(F)(F)F)cc2[nH]c1=O
> 100 µM (inactive)

Output measured GI50 for this item: CCN(CC)c1ccc(/C=C/C=C2C(=O)NC(=S)NC2=O)cc1
> 33.9 µM (inactive)

Please look at this compound and report its GI50: CCC(C(=O)c1ccccc1)C(CCCC(=O)Nc1c(C)cccc1C)N=O (stereo unspecified)
> 100 µM (inactive)

Report GI50 for COC(=O)C1=C(C(=O)OC)C(N(C)C)C(C(=O)OC)=C(C(=O)OC)S1
> 100 µM (inactive)

Supply recorded GI50 for CCOC(=O)c1[nH]c2nc(SC)nc(Nc3ccccc3Cl)c2c1N here.
27.2 µM (inactive)

###

Each entry below carries its recorded GI50.
Test system: SR
Assay: NCI tumour cell line growth inhibition, 48 h
The source made the active and inactive calls. No stated cut-off is given here; in the data, active = GI50 up to about 1.1 µM and inactive = higher.

{"Compound": "O=C(Nc1cccc(C(F)(F)F)c1)C(=O)C(C(=O)c1ccc(Cl)c(Cl)c1)C1OC(=O)c2ccccc21 (stereo not drawn)", "GI50": "15.4 µM (inactive)"}

System SR. Read-out GI50. Item Cc1sc(Nc2ccc(Nc3nc(-c4ccccc4)c(C)s3)cc2)nc1-c1ccccc1 . Report value.
20.9 µM (inactive)

Quote GI50 with test system SR for C=C1C(=O)OC2C1C(OC(=O)/C(C)=C\C)CC1(CO1)C1C(O)C=C(C)C21O (stereo not drawn)
4.83 µM (inactive)

Lab note: record GI50 of CC(=O)NC1C(OCc2ccccc2)OC(CO)C(O)C1OCC(=O)N1CCCC1C(=O)N[C@@H](CCC(=O)NCCCCNc1c2ccccc2nc2cccc([N+](=O)[O-])c12)C(N)=O (stereo partly drawn) tested on SR.
20.1 µM (inactive)

# assay system SR: give GI50 of Cc1nc(-n2nc(-c3ccccc3)cc2-c2ccccc2)sc1C(=O)/C=C/c1ccc(/C=C/C(=O)c2sc(-n3nc(-c4ccccc4)cc3-c3ccccc3)nc2C)cc1
27.2 µM (inactive)

Write GI50 of COC(=O)CCSC1=CC(=O)c2nc3ccccc3c3ccnc1c23 ; system used: SR
5.32 µM (inactive)

Report GI50 under test system SR for CCCCN1C(=O)C[C@H]2[C@@H]3CCc4cc(OCCN5CCCC5)ccc4[C@H]3CC[C@]2(C)C1=O .
3.79 µM (inactive)

Give reported GI50 for CC1CNC(NS(=O)(=O)c2cc(C(=O)Nc3ccc(F)cc3)c(Cl)cc2S)=NN1 (stereo not drawn) (SR)
43.5 µM (inactive)

###

System: SK-MEL-2
Experiment: NCI tumour cell line growth inhibition, 48 h
Calls of active or inactive are those of the source. Cut-off read from the data, not from the text of the source: active = GI50 up to about 1.1 µM and inactive = higher.
Measurement label: GI50

Example results:
{"Molecule": "CC/C(Cl)=N\\OC(=O)Nc1ccccc1OC(F)(F)F", "Measurement": "17.7 µM (inactive)"}
{"Molecule": "CN1C(=O)C(=CNc2ccc(Cl)cc2Cl)C(=O)N(C)C1=O", "Measurement": "> 100 µM (inactive)"}

Report GI50 for N=C1OC(CN2CCN(c3ccccc3)CC2)CN1C(=S)Nc1ccccc1 (stereo unspecified)
59.2 µM (inactive)

Supply reported GI50 belonging to this molecule: O=C(/C=C(\O)c1cc(-c2ccccc2)n(-c2ccccc2)n1)c1ccccc1
13.4 µM (inactive)

State its GI50: CN(C)CCCNc1ccc2nnn3c4ccc(O)cc4c(=O)c1c23
12.7 µM (inactive)

###

Test system: ACHN
Experiment: NCI tumour cell line growth inhibition, 48 h
Active and inactive are the calls of the source. Rule as the data show it: active = GI50 up to about 1.1 µM and inactive = higher.
Let's look at some compounds and their measured GI50.

Worked examples follow.
{"Compound": "COC(=O)C1OC(O[C@H]2CC[C@]3(C)[C@H]4CC=C5[C@@H]6CC(C)(C)CC[C@]6(C(=O)OC6OCC(O)C(O)C6OC6OC(C)C(OC7OCC(O)C(O)C7O)C(OC7OCC(O)(CO)C7O)C6O)[C@H](O)C[C@@]5(C)[C@]4(C)CC[C@H]3C2(C)C)C(O)C(O)C1O (stereo not given in full)", "Measurement label": "GI50", "Measurement": "3.31 µM (inactive)"}
{"Compound": "COc1cc(/C=C2\\CCC(C)c3c2nc(N)c(C#N)c3-c2cc(OC)c(OC)c(OC)c2)cc(OC)c1OC (stereo not given)", "Measurement label": "GI50", "Measurement": "> 100 µM (inactive)"}
{"Compound": "CC[S+]([O-])C(=O)N(O)c1ccc(Cl)cc1 (stereo not given)", "Measurement label": "GI50", "Measurement": "11.1 µM (inactive)"}

Identify the reported GI50 for the following entry. COC(=O)C1CCC(=S)N1C(=O)c1ccccc1 (stereo not given)
> 100 µM (inactive)

Give reported GI50 value for CNC1C(O)C(OC2C(N)CC(N)C(OC3OC(CN)=CCC3N)C2O)OCC1(C)O (stereo not given)
> 100 µM (inactive)

Report GI50 for CCCCCCCCC[n+]1cccc(C2C(C(=O)OCC)=C(C)NC(C)=C2C(=O)OCC)c1
14.6 µM (inactive)

Query GI50 for O=C1CSC(c2cccc(Cl)c2)N1c1ccc(-c2ccc(-n3c(-c4ccccc4)nc4ccccc4c3=O)cc2)cc1 (stereo not given)
45.8 µM (inactive)

Item O=C1CC(c2c[nH]c3ccccc23)C(=O)N1c1ccccc1 (stereo not given) : provide GI50
> 100 µM (inactive)

// fetch GI50 given entry COc1cc(C2SC(=N)Nc3c2c(C)nn3C(=O)c2ccccc2O)cc(OC)c1OC (stereo not given)
4.32 µM (inactive)

Entry CC(C)c1cc(C(F)(F)F)nc(NNc2nc(C(C)C)cc(C(F)(F)F)n2)n1 needs its GI50 filled in; supply it.
56.8 µM (inactive)

Retrieve GI50 measured for CC(NC(=O)C(N)CC(=O)O)NC(=O)N(C)C(C)(C)C (stereo not given) and print it.
> 100 µM (inactive)

Consider the compound CCOC(=O)/C(=N/Nc1ccc(Cl)cc1)N1C(=S)N(C)N=C(C)C=C1S and give its recorded GI50.
> 100 µM (inactive)

###

Measured GI50, listed per entry for reference.
System: SNB-75
Experiment: NCI tumour cell line growth inhibition, 48 h
The source made the active and inactive calls. Rule as the data show it: active = GI50 up to about 1.1 µM and inactive = higher.

Completed entries (count: 8):
{"Compound": "COc1cc([C@@H]2c3cc4c(cc3[C@@H](OC(=O)c3ccc(N)cc3)C3COC(=O)[C@@H]32)OCO4)cc(OC)c1O (some centres undefined)", "GI50": "3.21 µM (inactive)"}
{"Compound": "CC(C)c1ccccc1NC(=O)C(=O)Cc1nc2ccccc2s1", "GI50": "> 100 µM (inactive)"}
{"Compound": "N=C1OC(CN2CCN(c3ccccc3)CC2)CN1C(=S)Nc1ccccc1 (centres undefined)", "GI50": "31 µM (inactive)"}
{"Compound": "Cc1ccc(-c2nc(-c3cnccn3)n(C3OC(CO)C(O)C(O)C3O)n2)cc1 (centres undefined)", "GI50": "> 100 µM (inactive)"}
{"Compound": "CCCCCCCCNC(=O)SCCCC", "GI50": "26.1 µM (inactive)"}
{"Compound": "CC1C[C@]2(C[C@@H](C)C(=O)O2)O[C@@H]2CC3(C)[C@@H]4CCC5C(C)(C)OC(=O)C[C@H]6OO[C@]4(CC[C@]3(C)C12)CC56O (some centres undefined)", "GI50": "> 100 µM (inactive)"}
{"Compound": "C=CCN1C2Cc3cc(OC)c(OC)cc3C1Cc1cc(OC)c(OC)cc12", "GI50": "> 100 µM (inactive)"}
{"Compound": "CCC1CN2CCc3cc(OC)c(OC)cc3C2CC1CC1c2cc(OC)c(OC)cc2CCN1C(=O)CNC(=O)OC(C)(C)C (centres undefined)", "GI50": "20.9 µM (inactive)"}

Moving on to another compound below.
Name the recorded GI50 of the item Cc1ccc(S(=O)(=O)N/N=C/c2c(O)ccc3ccccc23)cc1 in your answer.
20.7 µM (inactive)

Source listed as ChEMBL document CHEMBL1201862.
